- EXPERIMENT_SUMMARY: qHTS Screen of the MIPE 4.0 Collection Against Ewings Sarcoma (EW8) (AID 1259255); note: nearly all actives have a fitted effect of over 35% in size;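 for viability: 100% = DMSO-treated cells and 0% = medium-only wells without cells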
- PROTOCOL_CONDITIONS: EW8 Ewing sarcoma viability, CellTiter-Glo, 48 h; series mostly up to 45.8 µM
Results filed as inconclusive are left out. The source made the active and inactive calls. Calls come from the whole dose curve; as a rule, active = well fitted inhibition curve with a large enough effect; inconclusive = small, poorly fitted or top-dose-only effect; inactive = no such curve, though single readings can be large or run the other way.
# valid calls are Yes for active, No for inactive; nothing else

Record excerpt, results attached:
COMPOUND	ASSIGNED_LABEL
O=C(c1cncc(Br)c1)N1CCC(N2CCCC2)CC1	No
CC(=O)Nc1nc(C)c(-c2ccc(Cl)c(S(=O)(=O)NCCO)c2)s1	Yes

Kindly consider the entry below.
What classification did "COc1cccc(Nc2c(C(N)=O)cnc3c(C)cc(S(=O)(=O)c4cccc(C(=O)N(C)C)c4)cc23)c1" end up with in this test?
No

====

- EXPERIMENT_SUMMARY: Quantitative High-Throughput drug screen in 47 multiple myeloma cell lines against the NCATS MIPE library collection: MMM1_PLB cell viability assay (AID 1918976); note: potency is the fitted concentration of half-maximal effect; nearly all actives have a fitted effect of over 35% in size
- PROTOCOL_CONDITIONS: MMM1 myeloma cells viability, CellTiter-Glo, 48 h; series mostly up to 45.8 µM
Results filed as inconclusive are left out. The source made the active and inactive calls. Calls come from the whole dose curve; as a rule, active = well fitted cell-killing curve with a large enough effect; inconclusive = small, poorly fitted or top-dose-only effect, or effect the other way; inactive = no such curve, though single readings can be large or run the other way.
Your reply should match one of these outcome classes. class 1 (active), class 0 (inactive)

Field: outcome | Entry: "COc1cc2nccc(Oc3ccc(NC(=O)C4(C(=O)Nc5ccc(F)cc5)CC4)cc3)c2cc1OC"
class 1

====

- EXPERIMENT_SUMMARY: Quantitative High-Throughput drug screen in 47 multiple myeloma cell lines against the NCATS MIPE library collection: Karpas25_ECACC cell viability assay (AID 1918968; note: potency is the fitted concentration of half-maximal effect; nearly all actives have a fitted effect of over 35% in size)
- PROTOCOL_CONDITIONS: Karpas25 myeloma viability, CellTiter-Glo ATP, 48 h; series mostly up to 45.8 µM
Inconclusive results are not listed. Active and inactive are the calls of the source. The call rests on the fitted dose curve; in most records, active means well fitted cell-killing curve with a large enough effect; inconclusive means small, poorly fitted or top-dose-only effect, or effect the other way; inactive means no such curve, though single readings can be large or run the other way.
Give measured Potency for each item. Keep answers brief.

Cc1cc(CN2CCN(c3c(Br)cnc4nc(-c5ccc(N6CCN(C)CC6)cc5)[nH]c34)CC2)no1 3.32 µM (active)
CC(C)c1cc(C(=O)N2Cc3ccc(CN4CCN(C)CC4)cc3C2)c(O)cc1O 0.166 µM (active)
COc1cc(Nc2ncc(F)c(Nc3ccc4c(n3)N(COP(=O)(O)O)C(=O)C(C)(C)O4)n2)cc(OC)c1OC 3.32 µM (active)
CNC(=O)c1ccccc1Nc1nc(Nc2ccc(N3CCOCC3)cc2OC)ncc1Cl 0.209 µM (active)
Nc1ccccc1NC(=O)c1ccc(CNC(=O)OCc2cccnc2)cc1 0.833 µM (active)

Fill in Potency for each of the 2 compounds listed.
1. O=C(c1ccc(Nc2nccc(-c3cc4ccccc4s3)n2)cc1)N1CCC(N2CCCC2)CC1
2. COc1cc(C(=O)N2CCC(N3CCN(C)CC3)CC2)ccc1Nc1ncc2c(n1)N(C)c1ccccc1C(=O)N2C

["4.18 µM (active)", "11.8 µM (active)"]

====

- EXPERIMENT_SUMMARY: Quantitative High-Throughput drug screen in 47 multiple myeloma cell lines against the NCATS MIPE library collection: OPM2_DSMZ cell viability assay (AID 1919872); note: nearly all actives have a fitted effect of over 30% in size
- PROTOCOL_CONDITIONS: OPM2 myeloma viability, CellTiter-Glo ATP luminescence, 48 h; series mostly up to 45.8 µM
Inconclusive results are not listed. Calls of active or inactive are those of the source. Calls follow the shape of the dose curve; as a rule, active = well fitted cell-killing curve with a large enough effect; inconclusive = small, poorly fitted or top-dose-only effect, or effect the other way; inactive = no such curve, though single readings can be large or run the other way.
Select the matching outcome among true = active, false = inactive

For orientation, consider the following solved cases.
Cc1nc(N)ncc1-c1nc(N2CCOCC2)c2sc(C(C)(C)O)cc2n1 true
O=c1c2ccccc2nc2n1CCc1c-2[nH]c2ccccc12 false
Cc1ccc(C(=O)Nc2ccc(CN3CCN(C)CC3)c(C(F)(F)F)c2)cc1C#Cc1cnc2cccnn12 true
COc1c(OCCCN2CCOCC2)ccc2c3n(c(=NC(=O)c4cnc(N)nc4)nc12)CCN3 true

What is the recorded call for this compound in the test? "COc1ccc2c(OCc3nnc4ccc(-c5ccccc5)nn34)ccnc2c1"
false
